- Experimental Protocol: Toxicity liver stage against HepG2, at 10uM
- Type: cell-based
- Design: test concentration 10 uM, cell line HepG2-A16-CD81EGFP
- Condition Summary: human, HepG2-A16-CD81EGFP cells; read-out: INHIBITION
Documented cytotoxicity at 10 µM across a set of compounds
Kindly answer with a numeric value in %, unit omitted.

Sample records with cytotoxicity at 10 µM:
COc1ccccc1CC(=O)N1CCN(Cc2ccco2)C[C@@H]1C: 2.08
CN(C)C(=O)c1cnc2n1CCN(Cc1cccc(C#N)c1)C2: -77.3
CC(C)NC(=O)C1CCN(Cn2ccc(-c3ccc(F)cc3)n2)CC1: 7.07
CC(C)CCC(=O)N1CCCC2(CCN(Cc3ccccc3C#N)C2)C1 (stereo unspecified): 0.129
Cc1nn2cccnc2c1C(=O)NCc1ccccc1OCC1CC1: -48.4

We next turn to a different compound, shown below.
cytotoxicity at 10 µM reading for Cc1ccc(CN2CCC3(CC(C(=O)NCC4CC4)=NO3)C2)cc1C (stereo unspecified) : 3.84
